assay method text: Tmax in male Sprague-Dawley rat administered with 2.5 mg/kg, po
Type: ADME, organism-based
Parameters: dose 2.5 mg/kg, route oral
measurement setup: in vivo

- compound: "CO[C@H]1C[C@@H]2CC[C@@H](C)[C@@](O)(O2)C(=O)C(=O)N2CCCC[C@H]2C(=O)O[C@H]([C@H](C)C[C@@H]2CC[C@H](n3cnnn3)[C@H](OC)C2)CC(=O)[C@H](C)/C=C(\\C)[C@@H](O)[C@@H](OC)C(=O)[C@H](C)C[C@H](C)/C=C/C=C/C=C/1C [ZOTAROLIMUS]"
  Tmax / min: 24
- compound: "CO[C@H]1C[C@@H]2CC[C@@H](C)[C@@](O)(O2)C(=O)C(=O)N2CCCC[C@H]2C(=O)O[C@H]([C@H](C)C[C@@H]2CC[C@@H](O)[C@H](OC)C2)CC(=O)[C@H](C)/C=C(\\C)[C@@H](O)[C@@H](OC)C(=O)[C@H](C)C[C@H](C)/C=C/C=C/C=C/1C [SIROLIMUS]"
  Tmax / min: 30
- compound: "CO[C@H]1C[C@@H]2CC[C@@H](C)[C@@](O)(O2)C(=O)C(=O)N2CCCC[C@H]2C(=O)OC([C@H](C)C[C@@H]2CC[C@@H](OC(=O)N(C)OC)[C@H](OC)C2)CC(=O)[C@H](C)/C=C(\\C)[C@@H](O)[C@@H](OC)C(=O)[C@H](C)C[C@H](C)/C=C/C=C/C=C/1C (stereo partly drawn)"
  Tmax / min: 24

----------
assay method text: Half life in human in a multiple dose escalation study
Format: ADME, organism-based
measurement setup: in vivo

- compound: "CO[C@H]1C[C@@H]2CC[C@@H](C)[C@@](O)(O2)C(=O)C(=O)N2CCCC[C@H]2C(=O)O[C@H]([C@H](C)C[C@@H]2CC[C@H](n3cnnn3)[C@H](OC)C2)CC(=O)[C@H](C)/C=C(\\C)[C@@H](O)[C@@H](OC)C(=O)[C@H](C)C[C@H](C)/C=C/C=C/C=C/1C [ZOTAROLIMUS]"
  half-life: "25 h"
- compound: "CO[C@H]1C[C@@H]2CC[C@@H](C)[C@@](O)(O2)C(=O)C(=O)N2CCCC[C@H]2C(=O)O[C@H]([C@H](C)C[C@@H]2CC[C@@H](O)[C@H](OC)C2)CC(=O)[C@H](C)/C=C(\\C)[C@@H](O)[C@@H](OC)C(=O)[C@H](C)C[C@H](C)/C=C/C=C/C=C/1C [SIROLIMUS]"
  half-life: "63 h"

----------
bioavailability reference
assay method text: Oral bioavailability in male Sprague-Dawley rat administered with 2.5 mg/kg, po
Type: ADME, organism-based
measurement setup: in vivo

- compound: "CO[C@H]1C[C@@H]2CC[C@@H](C)[C@@](O)(O2)C(=O)C(=O)N2CCCC[C@H]2C(=O)OC([C@H](C)C[C@@H]2CC[C@@H](OC(=O)N(C)OC)[C@H](OC)C2)CC(=O)[C@H](C)/C=C(\\C)[C@@H](O)[C@@H](OC)C(=O)[C@H](C)C[C@H](C)/C=C/C=C/C=C/1C (stereo partly drawn)"
  bioavailability / %: 6.2
- compound: "CO[C@H]1C[C@@H]2CC[C@@H](C)[C@@](O)(O2)C(=O)C(=O)N2CCCC[C@H]2C(=O)O[C@H]([C@H](C)C[C@@H]2CC[C@H](n3cnnn3)[C@H](OC)C2)CC(=O)[C@H](C)/C=C(\\C)[C@@H](O)[C@@H](OC)C(=O)[C@H](C)C[C@H](C)/C=C/C=C/C=C/1C"
  bioavailability / %: 12.1
- compound: "CO[C@H]1C[C@@H]2CC[C@@H](C)[C@@](O)(O2)C(=O)C(=O)N2CCCC[C@H]2C(=O)O[C@H]([C@H](C)C[C@@H]2CC[C@@H](O)[C@H](OC)C2)CC(=O)[C@H](C)/C=C(\\C)[C@@H](O)[C@@H](OC)C(=O)[C@H](C)C[C@H](C)/C=C/C=C/C=C/1C"
  bioavailability / %: 43.2

----------
Item-by-item account of AUC
assay method text: AUC in male Sprague-Dawley rat administered with 2.5 mg/kg, po
Type: ADME, organism-based
Parameters: dose 2.5 mg/kg, route oral
measurement setup: plasma

- compound: "CO[C@H]1C[C@@H]2CC[C@@H](C)[C@@](O)(O2)C(=O)C(=O)N2CCCC[C@H]2C(=O)O[C@H]([C@H](C)C[C@@H]2CC[C@@H](O)[C@H](OC)C2)CC(=O)[C@H](C)/C=C(\\C)[C@@H](O)[C@@H](OC)C(=O)[C@H](C)C[C@H](C)/C=C/C=C/C=C/1C"
  unit info: "ng·h/mL"
  AUC: 559
- compound: "CO[C@H]1C[C@@H]2CC[C@@H](C)[C@@](O)(O2)C(=O)C(=O)N2CCCC[C@H]2C(=O)O[C@H]([C@H](C)C[C@@H]2CC[C@H](n3cnnn3)[C@H](OC)C2)CC(=O)[C@H](C)/C=C(\\C)[C@@H](O)[C@@H](OC)C(=O)[C@H](C)C[C@H](C)/C=C/C=C/C=C/1C"
  unit info: "ng·h/mL"
  AUC: 163
- compound: "CO[C@H]1C[C@@H]2CC[C@@H](C)[C@@](O)(O2)C(=O)C(=O)N2CCCC[C@H]2C(=O)OC([C@H](C)C[C@@H]2CC[C@@H](OC(=O)N(C)OC)[C@H](OC)C2)CC(=O)[C@H](C)/C=C(\\C)[C@@H](O)[C@@H](OC)C(=O)[C@H](C)C[C@H](C)/C=C/C=C/C=C/1C (stereo partly drawn)"
  unit info: "ng·h/mL"
  AUC: 132

----------
// reported Cmax per item
assay method text: Cmax in male Sprague-Dawley rat administered with 2.5 mg/kg, po
Assay type: ADME, organism-based
Design: dose 2.5 mg/kg, route oral
measurement setup: in vivo

- molecule: "CO[C@H]1C[C@@H]2CC[C@@H](C)[C@@](O)(O2)C(=O)C(=O)N2CCCC[C@H]2C(=O)O[C@H]([C@H](C)C[C@@H]2CC[C@H](n3cnnn3)[C@H](OC)C2)CC(=O)[C@H](C)/C=C(\\C)[C@@H](O)[C@@H](OC)C(=O)[C@H](C)C[C@H](C)/C=C/C=C/C=C/1C [ZOTAROLIMUS]"
  Cmax [ng/mL]: 46.7
- molecule: "CO[C@H]1C[C@@H]2CC[C@@H](C)[C@@](O)(O2)C(=O)C(=O)N2CCCC[C@H]2C(=O)OC([C@H](C)C[C@@H]2CC[C@@H](OC(=O)N(C)OC)[C@H](OC)C2)CC(=O)[C@H](C)/C=C(\\C)[C@@H](O)[C@@H](OC)C(=O)[C@H](C)C[C@H](C)/C=C/C=C/C=C/1C (stereo partly drawn)"
  Cmax [ng/mL]: 29.7
- molecule: "CO[C@H]1C[C@@H]2CC[C@@H](C)[C@@](O)(O2)C(=O)C(=O)N2CCCC[C@H]2C(=O)O[C@H]([C@H](C)C[C@@H]2CC[C@@H](O)[C@H](OC)C2)CC(=O)[C@H](C)/C=C(\\C)[C@@H](O)[C@@H](OC)C(=O)[C@H](C)C[C@H](C)/C=C/C=C/C=C/1C [SIROLIMUS]"
  Cmax [ng/mL]: 50.8

----------
Examples of compounds with documented half-life follow.
assay method text: Half life in male Sprague-Dawley rat administered with 2.5 mg/kg, po
Format: ADME, organism-based
Parameters: dose 2.5 mg/kg, route oral
measurement setup: in vivo

- compound: "CO[C@H]1C[C@@H]2CC[C@@H](C)[C@@](O)(O2)C(=O)C(=O)N2CCCC[C@H]2C(=O)OC([C@H](C)C[C@@H]2CC[C@@H](OC(=O)N(C)OC)[C@H](OC)C2)CC(=O)[C@H](C)/C=C(\\C)[C@@H](O)[C@@H](OC)C(=O)[C@H](C)C[C@H](C)/C=C/C=C/C=C/1C (stereo partly drawn)"
  unit info: "h"
  half-life: 8.7
- compound: "CO[C@H]1C[C@@H]2CC[C@@H](C)[C@@](O)(O2)C(=O)C(=O)N2CCCC[C@H]2C(=O)O[C@H]([C@H](C)C[C@@H]2CC[C@@H](O)[C@H](OC)C2)CC(=O)[C@H](C)/C=C(\\C)[C@@H](O)[C@@H](OC)C(=O)[C@H](C)C[C@H](C)/C=C/C=C/C=C/1C"
  unit info: "h"
  half-life: 33.4
- compound: "CO[C@H]1C[C@@H]2CC[C@@H](C)[C@@](O)(O2)C(=O)C(=O)N2CCCC[C@H]2C(=O)O[C@H]([C@H](C)C[C@@H]2CC[C@H](n3cnnn3)[C@H](OC)C2)CC(=O)[C@H](C)/C=C(\\C)[C@@H](O)[C@@H](OC)C(=O)[C@H](C)C[C@H](C)/C=C/C=C/C=C/1C"
  unit info: "h"
  half-life: 7.9

// data source = ChEMBL document CHEMBL1141950
